# measurement target: T1, biotinylated goat anti-human kappa light chain
# T1 construct: positive control of the ELISA
# experimental protocol: ELISA, positive control; also: test concentration or dose not given here
// reported optical density for each item listed
Give the value in OD but do not write OD after it.

Here's what some known entries look like.
1. 370_E12 (antibody, V domains shown, Group II) VH: EVQLLESGGGLVQPGGSLRLSCAASGFTFDSYGMHWVRQAPGKGLEWVAGINYNGGYTSYADSVKGRFTISRDNSKNTLYLQMNSLRAEDTAVYYCARAATWHDTHLDYWGQGTLVTVSS VL: DIQMTQSPSSLSASVGDRVTITCRASQSILSYVNWYQQKPGKAPKLLIYAATSRASGVPSRFSGSGSGTDFTLTISSLQPEDFATYYCQQSYENPLTFGGGTKVEIK ... 3.66
2. 371_A04 (antibody, V domains shown, Group I) VH: EVQLLESGGGLVQPGGSLRLSCAASGFTFDSYGMNWVRQAPGKGLEWVSSINYNSGYTGYADSVKGRFTISRDNSKNTLYLQMNSLRAEDTAVYYCARAANWHDTALDYWGQGTLVTVSS VL: DIQMTQSPSSLSASVGDRVTITCRASQSILTYLNWYQQKPGKAPKLLIYAVTSRASGVPSRFSGSGSGTDFTLTISSLQPEDFATYYCQQSYDTPLTFGGGTKVEIK ... 3.53
3. 365_G07 (antibody, V domains shown, Group I) VH: EVQLLESGGGLVQPGGSLRLSCAASGFTFDSYGMHWVRQAPGKGLEWVSSINYNGGYTSYADSVKGRFTISRDNSKNTLYLQMNSLRAEDTAVYYCARAANWHDTALDYWGQGTLVTVSS VL: DIQMTQSPSSLSASVGDRVTITCRASQSIVSYLNWYQQKPGKAPKLLIYAATSRASGVPSRFSGSGSGTDFTLTISSLQPEDFATYYCQQSYDNPLTFGGGTKVEIK ... 3.47
4. 366_H01 (antibody, V domains shown, Group II) VH: EVQLLESGGGLVQPGGSLRLSCAASGFTFDDYSMHWVRQAPGKGLEWVANINYNGGYTSYADSVKGRFTISRDNSKNTLYLQMNSLRAEDTAVYYCARAATWHDTHLDYWGQGTLVTVSS VL: DIQMTQSPSSLSASVGDRVTITCRASQSILTYLNWYQQKPGKAPKLVIYATTSRHSGVPSRFSGSGSGTDFTLTISSLQPEDFATYYCQQSYESPLTFGGGTKVEIK ... 3.71

Now consider a different binder.
GET /value?item= 366_B07 (antibody, V domains shown, Group III) VH: EVQLLESGGGLVQPGGSLRLSCAASGFTFSDYGMNWVRQAPGKGLEWVSGINYNGGYTSYADSVKGRFTISRDNSKNTLYLQMNSLRAEDTAVYYCARGANWHDTHLDYWGQGTLVTVSS VL: DIQMTQSPSSLSASVGDRVTITCRASQSIVSYLNWYQQKPGKAPKLVIYATTSRASGVPSRFSGSGSGTDFTLTISSLQPEDFATYYCQQSYNSPLTFGGGTKVEIK &field=optical density returns 3.22

Hello, the source for this data is patent US20210380703A1, in case you need it.
